Please provide measured IC50 for the entries that follow.
system: human skin chymase (Homo sapiens)
Construct: using human skin chymase (Cortex Biochem); purchased Cortex Biochem
Sequence (P23946 22-247): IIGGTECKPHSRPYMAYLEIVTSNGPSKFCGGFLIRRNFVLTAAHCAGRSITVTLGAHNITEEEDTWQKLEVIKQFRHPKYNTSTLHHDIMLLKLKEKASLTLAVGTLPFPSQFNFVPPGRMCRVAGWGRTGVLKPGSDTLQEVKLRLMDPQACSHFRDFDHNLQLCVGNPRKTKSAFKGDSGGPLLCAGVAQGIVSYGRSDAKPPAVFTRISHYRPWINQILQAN
test protocol: Enzyme-catalyzed hydrolysis assay (chymase inhibition)
Type: biochemical
test parameters: 10 nM enzyme, 0.7 mM Suc-Ala-Ala-Pro-Phe-pNa, pH 8.0, 37° C., 30 minutes
One number for each entry, in µM.

Answered examples (5):
• O=C(Nc1ccc2ccccc2c1)C(c1csc2ccc(-c3ccccc3)cc12)P(=O)(O)O (centres unmarked) = 1
• CP(=O)(O)C(C(=O)N/C=C/c1cc(F)ccc1F)c1csc2ccc(Cl)cc12 (centres unmarked) = 0.042
• CP(=O)(O)C(C(=O)N/C=C/c1cccc(F)c1F)c1csc2ccc(Cl)cc12 (centres unmarked) = 0.017
• O=C(NC=Cc1ccc(C(F)(F)F)cc1)C(c1csc2ccc(Cl)cc12)P(=O)(O)O (centres unmarked) = 1.7
• O=C(Nc1ccc2ccccc2c1)C(c1csc2ccc(Br)cc12)P(=O)(O)O (centres unmarked) = 0.1

# per-item lookup of IC50; items listed below
1. COc1ccc(CCN(C)C(=O)c2cc3ccccc3cc2NC(=O)C(c2cccc3ccccc23)P(=O)(O)O)cc1OC (centres unmarked)
2. O=C(Nc1cc2ccccc2cc1C(=O)N1CCC2(CC1)C(=O)NCN2c1ccccc1)C(c1cccc2ccccc12)P(=O)(O)O (centres unmarked)

5.36
3.88

Any idea what IC50 was measured for O=C(NC=Cc1cc(F)cc(F)c1)C(c1csc2ccc(Cl)cc12)P(=O)(O)O (centres unmarked) ?
0.0018

---

system: human skin chymase (Homo sapiens, UniProt P23946)
Construct: using human skin chymase (Cortex Biochem); purchased Cortex Biochem
test protocol: Enzyme-catalyzed hydrolysis assay (chymase inhibition)
Format: biochemical
test parameters: 10 nM enzyme, 0.7 mM Suc-Ala-Ala-Pro-Phe-pNa, pH 8.0, 37° C., 30 minutes
Each entry belongs to exactly one class, chosen by where its IC50 falls: LOW: < 0.1 µM; MID: ≥ 0.1 µM and < 3 µM; HIGH: ≥ 3 µM

* CP(=O)(O)C(C(=O)N/C=C/c1ccccc1O)c1csc2ccc(Cl)cc12 (stereo not drawn) | LOW
* Cn1cc(C(C(=O)Nc2ccc3ccccc3c2)P(=O)(O)O)c2c(Cl)cccc21 (stereo not drawn) | MID

Which category does the recorded IC50 put O=C(N/C=C/c1cccnc1)C(c1csc2ccc(Cl)cc12)P(=O)(O)O (stereo not drawn) in?
MID

Which class does O=C(Nc1cc2ccccc2cc1CNCc1ccccc1)C(c1cccc2ccccc12)P(=O)(O)O (stereo not drawn) fall in?
HIGH

# bin label for Cn1cc(C(C(=O)Nc2ccc3ccccc3c2)P(=O)(O)O)c2cccc(Cl)c21 (stereo not drawn)
MID

Sort Cc1ccccc1C=CNC(=O)C(c1csc2ccc(Cl)cc12)P(C)(=O)O (stereo not drawn) into one of the categories.
MID

Form field 'band' for O=C(Nc1cc2ccccc2cc1C(=O)N1CCCC1c1ccccc1)C(c1cccc2ccccc12)P(=O)(O)O (stereo not drawn)
HIGH

# bin label for COc1ccccc1/C=C/NC(=O)C(c1csc2ccc(Cl)cc12)P(C)(=O)O (stereo not drawn)
LOW

For this molecule, which bin applies? O=C(Nc1cc2ccccc2cc1NCCCCCc1ccccc1)C(c1cccc2ccccc12)P(=O)(O)O (stereo not drawn)
HIGH

Textbook exercise: identify the category of the molecule given here, Cn1cc(C(C(=O)N/C=C/c2cccc(F)c2)P(C)(=O)O)c2cc(Cl)ccc21 (stereo not drawn) , according to its measured value.
LOW

Dear colleague, I would appreciate it if you could identify the bin for COc1ccc2c(c1)c(C(C(=O)Nc1ccc3ccccc3c1)P(=O)(O)O)cn2C (stereo not drawn) and reply at your convenience.
MID

---

system: human skin chymase (Homo sapiens, UniProt P23946)
Construct: using human skin chymase (Cortex Biochem); purchased Cortex Biochem
Sequence (P23946 22-247): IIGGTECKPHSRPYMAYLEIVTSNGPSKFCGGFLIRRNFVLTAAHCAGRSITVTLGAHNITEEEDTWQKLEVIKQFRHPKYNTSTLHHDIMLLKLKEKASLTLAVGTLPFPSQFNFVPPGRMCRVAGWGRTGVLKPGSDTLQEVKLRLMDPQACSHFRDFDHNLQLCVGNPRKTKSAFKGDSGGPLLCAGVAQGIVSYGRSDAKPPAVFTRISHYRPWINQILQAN
test protocol: Enzyme-catalyzed hydrolysis assay (chymase inhibition)
Assay type: biochemical
test parameters: 10 nM enzyme, 0.7 mM Suc-Ala-Ala-Pro-Phe-pNa, pH 8.0, 37° C., 30 minutes
Exam item: assign Criterion met to entries whose IC50 is below 1 µM and Criterion not met to entries at or above 1 µM. Note that a value of exactly 1 µM receives Criterion not met.

// below: answered compounds
• O=C(Nc1ccc2ccccc2c1)C(c1csc2cccc(Br)c12)P(=O)(O)O (centres unmarked) [Cpd 99] = Criterion not met
• O=C(Nc1ccccc1)Oc1cc2ccccc2cc1NC(=O)C(c1cccc2ccccc12)P(=O)(O)O (centres unmarked) [Cpd 95] = Criterion not met
• CP(=O)(O)C(C(=O)N/C=C/c1cccc(N)c1)c1csc2ccc(Cl)cc12 (centres unmarked) [Cpd 172] = Criterion met
• CN(C(=O)c1cc2ccccc2cc1NC(=O)C(c1cccc2ccccc12)P(=O)(O)O)C1CCCC1 (centres unmarked) [Cpd 91] = Criterion not met
• CP(=O)(O)C(C(=O)N/C=C/c1cc(F)cc(F)c1)c1csc2ccc(Cl)cc12 (centres unmarked) [Cpd 162] = Criterion met

Hello, is IC50 of the following compound strictly smaller than 1 µM? CC(C)n1cc(C(C(=O)Nc2ccc3ccccc3c2)P(=O)(O)O)c2ccccc21 (centres unmarked) [Cpd 77]
Criterion not met

Report whether reported IC50 is lower than 1 µM (strictly) for Cn1cc(C(C(=O)Nc2ccc3ccccc3c2)P(=O)(O)O)c2cc(Br)ccc21 (centres unmarked) [Cpd 13]
Criterion met

Decide: IC50 of O=C(Nc1ccc2ccccc2c1)C(c1csc2ccc(Cl)cc12)P(=O)(O)CCCc1ccc(O)cc1 (centres unmarked) [Cpd 43] strictly below 1 µM?
Criterion met

---

system: human skin chymase (Homo sapiens)
Construct: using human skin chymase (Cortex Biochem); purchased Cortex Biochem
test protocol: Enzyme-catalyzed hydrolysis assay (chymase inhibition)
Type: biochemical
test parameters: 10 nM enzyme, 0.7 mM Suc-Ala-Ala-Pro-Phe-pNa, pH 8.0, 37° C., 30 minutes
quantity: log10 of IC50 (log10 of the value in µM)
Log scale reminder: IC50 in µM, then log10 taken.

Example entries begin here.
• COc1ccc(CCCP(=O)(O)C(C(=O)Nc2ccc3ccccc3c2)c2csc3ccc(Cl)cc23)cc1 (stereo not drawn) [Cpd 53] = -0.31
• CP(=O)(O)C(C(=O)N/C=C/c1cccc(OC(F)(F)F)c1)c1csc2ccc(Cl)cc12 (stereo not drawn) [Cpd 153] = -1.22
• CP(=O)(O)C(C(=O)NC=Cc1ccccc1N)c1csc2ccc(Cl)cc12 (stereo not drawn) [Cpd 151] = -0.40

# batch: return log10 of IC50 for each of the 4 compounds below
1. O=C(Nc1ccc2ccccc2c1)C(c1cc2ccccc2s1)P(=O)(O)O (stereo not drawn) [Cpd 140]
2. CP(=O)(O)C(C(=O)NC=Cc1ccc(Cl)cc1)c1csc2ccc(Cl)cc12 (stereo not drawn) [Cpd 78]
3. CP(=O)(O)C(C(=O)N/C=C/c1c(F)cccc1F)c1csc2ccc(Cl)cc12 (stereo not drawn) [Cpd 156]
4. O=C(Nc1ccc2ccccc2c1)C(c1csc2ccc(F)cc12)P(=O)(O)O (stereo not drawn) [Cpd 10]

0.96
0.18
-1.44
-1.54

---

system: human skin chymase (Homo sapiens)
Construct: using human skin chymase (Cortex Biochem); purchased Cortex Biochem
Sequence (P23946 22-247): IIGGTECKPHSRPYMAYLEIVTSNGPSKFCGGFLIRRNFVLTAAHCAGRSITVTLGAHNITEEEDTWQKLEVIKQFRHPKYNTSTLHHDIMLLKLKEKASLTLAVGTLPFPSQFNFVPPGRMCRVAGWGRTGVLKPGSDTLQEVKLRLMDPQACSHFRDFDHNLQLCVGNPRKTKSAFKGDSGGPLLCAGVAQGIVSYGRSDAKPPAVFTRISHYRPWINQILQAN
test protocol: Enzyme-catalyzed hydrolysis assay (chymase inhibition)
Format: biochemical
test parameters: 10 nM enzyme, 0.7 mM Suc-Ala-Ala-Pro-Phe-pNa, pH 8.0, 37° C., 30 minutes
API: label(entry) gives true (1) if the entry's IC50 is strictly smaller than 3 µM; on equality or larger values it gives false (0).

* O=C(NCc1ccccc1)c1cc2ccccc2cc1NC(=O)C(c1cccc2ccccc12)P(=O)(O)O (stereo not shown) | false (0)
* O=C(Nc1cc2ccccc2cc1C(=O)N1CCC(c2ccccc2)CC1)C(c1cccc2ccccc12)P(=O)(O)O (stereo not shown) | false (0)
* CP(=O)(O)C(C(=O)N/C=C/c1cccc(Br)c1)c1csc2ccc(Cl)cc12 (stereo not shown) | true (1)
* CN(CCCC1c2ccccc2C=Cc2ccccc21)Cc1cc2ccccc2cc1NC(=O)C(c1cccc2ccccc12)P(=O)(O)O (stereo not shown) | false (0)
* O=C(Nc1ccc2cc(Br)ccc2c1)C(c1csc2ccc(Cl)cc12)P(=O)(O)O (stereo not shown) | true (1)
* O=C(Nc1ccc2ccccc2c1)C(c1cn(-c2ccccc2)c2ccccc12)P(=O)(O)O (stereo not shown) | true (1)
* COc1cccc(/C=C/NC(=O)C(c2csc3ccc(Cl)cc23)P(C)(=O)O)c1 (stereo not shown) | true (1)
* Nc1ccc(/C=C/NC(=O)C(c2csc3ccc(Cl)cc23)P(=O)(O)O)cc1 (stereo not shown) | true (1)
* CP(=O)(O)C(C(=O)NC=Cc1cccc(C(F)(F)F)c1)c1csc2ccc(Cl)cc12 (stereo not shown) | true (1)
* CC1CCCC(NCc2cc3ccccc3cc2NC(=O)C(c2cccc3ccccc23)P(=O)(O)O)C1 (stereo not shown) | true (1)

Lab note: confirm whether the reported IC50 for this compound is below 3 µM, equality not counting. compound: CP(=O)(O)C(C(=O)N/C=C/c1ccccc1Cl)c1csc2ccc(Cl)cc12 (stereo not shown)
true (1)

Consider the compound O=C(Nc1cccc(Oc2ccccc2)c1)C(c1cccc2ccccc12)P(=O)(O)O (stereo not shown) . Is its IC50 strictly less than 3 µM?
false (0)

Bench note: check whether O=C(Nc1cc2ccccc2cc1C(=O)N1CCC(n2c(=O)[nH]c3ccccc32)CC1)C(c1cccc2ccccc12)P(=O)(O)O (stereo not shown) shows IC50 below 3 µM
true (1)

Is the reported IC50 for O=C(C=Cc1cc2ccccc2cc1NC(=O)C(c1cccc2ccccc12)P(=O)(O)O)NCc1ccccc1 (stereo not shown) strictly below 3 µM?
false (0)

Strictly below 3 µM: is that where IC50 of O=C(Nc1ccc2ccccc2c1)C(c1cn(CC2CC2)c2ccccc12)P(=O)(O)O (stereo not shown) sits?
true (1)

// provenance: patent US7459444B2
